Origin of measurements: patent US11440899B2

pIC50: −log10 of the molar value. Counter-ions that a name gives are not always drawn.
The following are reported pIC50 results, target or system TBK1 (Homo sapiens (Human), UniProt Q9UHD2).

Below, 8 compounds whose answers are already recorded.
COc1nc(Nc2cc(-c3ccc(OC4CCN(C(=O)[C@H](C)O)CC4(F)F)c(C#N)c3)ncn2)ccc1N1CCN(C)C[C@H]1C (stereo partly drawn) [Example 65, hydrochloride]
> 7.00
COc1nc(Nc2cc(-c3ccc(OC4CCN(C(=O)c5cnco5)CC4)c(C#N)c3)ncn2)ccc1N1CCN(C)CC1
> 7.00
COc1nc(Nc2cc(-c3ccc(O[C@H]4CCNC[C@H]4F)c(C#N)c3)ncn2)ccc1C(=O)N(C)C
6.00 to 7.00
COc1nc(Nc2cc(-c3ccc(OC4CCOCC4)c(C#N)c3)ncn2)ccc1C(=O)N(C)CCO
> 7.00
COc1nc(Nc2cc(-c3ccc(OC4CCNCC4(F)F)c(C#N)c3)ncn2)ccc1N1CCN(C)[C@H](C)C1 (stereo partly drawn)
> 7.00
COc1nc(Nc2cc(-c3ccc(OC4CCN(C(=O)[C@@H](C)O)CC4(F)F)c(C#N)c3)ncn2)ccc1N1CCN(C)C[C@@H]1C (stereo partly drawn) [Example 63, hydrochloride]
> 7.00
COc1nc(Nc2cc(-c3ccc(O[C@H]4CCN(C(=O)c5cnn[nH]5)C[C@H]4F)c(C#N)c3)ncn2)ccc1N1CCN(C)CC1
> 7.00
COc1nc(Nc2cc(-c3ccc(OC4CCNCC4(F)F)c(C#N)c3)ncn2)ccc1N1CCN(C2COC2)C[C@@H]1C (stereo partly drawn)
> 7.00

TBK1 (Homo sapiens (Human), UniProt Q9UHD2) pIC50 of COc1nc(Nc2cc(-c3ccc(OC4CCN(C(=O)[C@@H](C)O)CC4(F)F)c(C#N)c3)ncn2)ccc1N1CCN(C2COC2)C[C@@H]1C (stereo partly drawn) is > 7.00

TBK1 (Homo sapiens (Human), UniProt Q9UHD2) pIC50 of COc1cc(Nc2cc(-c3ccc(OC4CCOCC4)c(C#N)c3)ncn2)ncc1C(=O)N(C)C is > 7.00

TBK1 (Homo sapiens (Human), UniProt Q9UHD2) pIC50 of COc1nc(Nc2cc(-c3ccc(OC4CCOCC4)c(C#N)c3)ncn2)ccc1C(=O)N1CC2CCC(C1)O2 is > 7.00

TBK1 (Homo sapiens (Human), UniProt Q9UHD2) pIC50 of COc1nc(Nc2cc(-c3ccc(O[C@H]4CCN(C(=O)[C@@H](C)O)CC4(F)F)c(C#N)c3)ncn2)ccc1N1CCN(C2COC2)CC1 is > 7.00

TBK1 (Homo sapiens (Human), UniProt Q9UHD2) pIC50 of COc1nc(Nc2cc(-c3ccc(OC4CCOCC4)c(C#N)c3)ncn2)ccc1C1CCNCC1 is > 7.00

TBK1 (Homo sapiens (Human), UniProt Q9UHD2) pIC50 of COc1nc(Nc2cc(-c3ccc(O[C@H]4CCN(C(=O)[C@@H](C)O)CC4(F)F)c(C#N)c3)ncn2)ccc1N1CCN(C2COC2)C[C@@H]1C is > 7.00

TBK1 (Homo sapiens (Human), UniProt Q9UHD2) pIC50 of COc1nc(Nc2cc(-c3ccc(O[C@H]4CCN(C(=O)c5cnn[nH]5)C[C@H]4F)c(C#N)c3)ncn2)ccc1N1CCN(C2COC2)CC1 is > 7.00
